assayed-target: BTK enzyme (recombinant full-length BTK, hBTK) (Homo sapiens)
Construct: recombinant protein from baculovirus-transfected S 19 cells: full-length BTK, 6 HIS-tag cleaved; 6 HIS-tag (cleaved yes)
assay-name: Btk enzyme activity assay (LANCE TR-FRET)
conditions: 50 pM hBTK, 25 μM ATP, 60 minute compound and enzyme incubation, concentration range 1 μM to 0.017 nM, read-out: BTK binding IC50
quantity-measured: IC50 (nM)

The following compounds have reported results that may help.
| compound | quantity-measured | unit-symbol | readout-number |
| --- | --- | --- | --- |
| C[C@H]1CO[C@@H](c2nc(-c3ccc(C(=O)Nc4cc(C(F)(F)F)ccn4)cc3F)c3c(N)nccn23)CN1C1COC1 [Example 76] | IC50 | nM | 0.531 |
| C[C@H]1CC[C@@H](c2nc(-c3ccc(C(=O)Nc4cc(C#N)ccn4)cc3)c3c(N)nccn23)CN1C(=O)C1CC1 [Example 89] | IC50 | nM | 0.297 |
| COc1cc(C(=O)Nc2cc(C(F)(F)F)ccn2)ccc1-c1nc([C@H]2CN(C(=O)C3CC3)[C@@H](C)CO2)n2c(Cl)cnc(N)c12 [Example 47] | IC50 | nM | 5.59 |
| CCOc1cc(C(=O)Nc2cc(C(F)(F)F)ccn2)ccc1-c1nc([C@H]2CN(C(C)=O)[C@@H](C)CO2)n2c(Cl)cnc(N)c12 [Example 20] | IC50 | nM | 1.36 |

P = C[C@H]1CO[C@@H](c2nc(-c3ccc(C(=O)Nc4cc(C(F)(F)F)ccn4)cc3)c3c(N)ncc(Cl)n23)CN1C(=O)C1CC1 [Example 43]
Q = CCOc1cc(C(=O)Nc2cc(C(F)(F)F)ccn2)ccc1-c1nc([C@H]2CN(C(=O)C(C)C)[C@@H](C)CO2)n2c(Cl)cnc(N)c12 [Example 7]
Request: Compare P and Q and name the one whose reported IC50 is smaller. API: response body contains the label of the selected item.
Result: P
(P: 0.784 nM, Q: 1.67 nM)

====

assayed-target: BTK enzyme (recombinant full-length BTK, hBTK) (Homo sapiens, UniProt Q06187)
Construct: recombinant protein from baculovirus-transfected S 19 cells: full-length BTK, 6 HIS-tag cleaved; 6 HIS-tag (cleaved yes)
Sequence (Q06187 whole entry): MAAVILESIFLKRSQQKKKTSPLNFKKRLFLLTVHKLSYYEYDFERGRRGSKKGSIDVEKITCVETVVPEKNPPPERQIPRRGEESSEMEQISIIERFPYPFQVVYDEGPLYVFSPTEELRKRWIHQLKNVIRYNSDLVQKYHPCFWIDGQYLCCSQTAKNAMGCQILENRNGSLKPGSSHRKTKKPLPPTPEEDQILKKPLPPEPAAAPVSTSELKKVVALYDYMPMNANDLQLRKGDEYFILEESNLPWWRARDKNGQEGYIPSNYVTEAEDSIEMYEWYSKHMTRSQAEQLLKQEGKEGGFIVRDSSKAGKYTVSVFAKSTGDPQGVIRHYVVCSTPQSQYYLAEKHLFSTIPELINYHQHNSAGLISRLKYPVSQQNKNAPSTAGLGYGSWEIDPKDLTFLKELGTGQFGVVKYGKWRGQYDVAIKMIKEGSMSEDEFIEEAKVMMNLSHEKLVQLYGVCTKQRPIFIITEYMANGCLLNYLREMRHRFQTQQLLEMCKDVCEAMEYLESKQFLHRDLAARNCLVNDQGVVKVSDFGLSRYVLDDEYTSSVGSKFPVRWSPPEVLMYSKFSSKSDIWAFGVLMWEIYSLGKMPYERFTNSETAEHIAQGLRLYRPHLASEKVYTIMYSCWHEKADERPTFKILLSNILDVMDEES
assay-name: Btk enzyme activity assay (LANCE TR-FRET)
conditions: 50 pM hBTK, 25 μM ATP, 60 minute compound and enzyme incubation, concentration range 1 μM to 0.017 nM, read-out: BTK binding IC50
quantity-measured: IC50 (nM)

The following compounds have reported results that may help.
| smiles-input | assayed-target | unit-symbol | IC50 |
| --- | --- | --- | --- |
| COc1cc(C(=O)Nc2cc(C(F)(F)F)ccn2)ccc1-c1nc([C@H]2CN(C3COC3)[C@@H](C)CO2)n2ccnc(N)c12 | BTK enzyme (recombinant full-length BTK, hBTK) (Homo sapiens, UniProt Q06187) | nM | 2.54 |
| COc1cc(C(=O)Nc2cc(C(F)(F)F)ccn2)ccc1-c1nc([C@H]2CN(C(=O)C3CN(Cc4ccccc4F)C3)[C@@H](C)CO2)n2ccnc(N)c12 | BTK enzyme (recombinant full-length BTK, hBTK) (Homo sapiens, UniProt Q06187) | nM | 2.77 |
| CCOc1cc(C(=O)Nc2cc(C(F)(F)F)ccn2)ccc1-c1nc([C@@H]2CC[C@@H](C(F)(F)F)N(C(=O)C3CC3)C2)n2ccnc(N)c12 | BTK enzyme (recombinant full-length BTK, hBTK) (Homo sapiens, UniProt Q06187) | nM | 39.4 |
| CCOc1cc(C(=O)Nc2cc(C(F)(F)F)ccn2)ccc1-c1nc([C@H]2CN(C(=O)[C@@H](C)O)[C@@H](C)CO2)n2c(Cl)cnc(N)c12 | BTK enzyme (recombinant full-length BTK, hBTK) (Homo sapiens, UniProt Q06187) | nM | 1.42 |
| C[C@H]1CO[C@@H](c2nc(-c3ccc(C(=O)Nc4cc(C(F)(F)F)ccn4)cc3F)c3c(N)ncc(Cl)n23)CN1C1CCOCC1 | BTK enzyme (recombinant full-length BTK, hBTK) (Homo sapiens, UniProt Q06187) | nM | 0.303 |

A = CCOc1cc(C(=O)Nc2cc(C(F)(F)F)ccn2)ccc1-c1nc([C@H]2CN(C(=O)[C@H](C)O)[C@@H](C)CO2)n2c(Cl)cnc(N)c12
B = CC(C)C(=O)N1C[C@H](c2nc(-c3ccc(C(=O)Nc4cc(C(F)(F)F)ccn4)cc3F)c3c(N)nccn23)OC[C@@H]1C
Request: Could you please tell me which of these two has the higher IC50: A or B ? API: response body contains the label of the selected item.
Result: A
(A: 1.21 nM, B: 0.738 nM)

1 = C[C@H]1CO[C@@H](c2nc(-c3ccc(C(=O)Nc4ccccn4)cc3)c3c(N)nccn23)CN1C1CCOCC1
2 = CCOc1cc(C(=O)Nc2cc(C(F)(F)F)ccn2)cc(F)c1-c1nc([C@H]2CN(C(=O)[C@H](C)O)[C@@H](C)CO2)n2c(Cl)cnc(N)c12
Request: Could you please tell me which of these two has the higher IC50: 1 or 2 ? API: response body contains the label of the selected item.
Result: 1

====

assayed-target: BTK enzyme (recombinant full-length BTK, hBTK) (Homo sapiens)
Construct: recombinant protein from baculovirus-transfected S 19 cells: full-length BTK, 6 HIS-tag cleaved; 6 HIS-tag (cleaved yes)
assay-name: Btk enzyme activity assay (LANCE TR-FRET)
conditions: 50 pM hBTK, 25 μM ATP, 60 minute compound and enzyme incubation, concentration range 1 μM to 0.017 nM, read-out: BTK binding IC50
pIC50: −log10 of the molar value.
quantity-measured: pIC50

The following compounds have reported results that may help.
| compound | pIC50 |
| --- | --- |
| C=Cc1cnc(N)c2c(-c3ccc(C(=O)Nc4cc(C(F)(F)F)ccn4)cc3OC)nc([C@H]3CN(C(=O)C4CC4)[C@@H](C)CO3)n12 [Example 10] | 9.28 |
| C[C@H]1CO[C@@H](c2nc(-c3ccc(C(=O)Nc4cc(C(F)(F)F)ccn4)cc3F)c3c(N)nccn23)CN1C(=O)C1(C)CC1 [Example 85] | 9.26 |
| COc1cc(C(=O)Nc2cc(C(F)(F)F)ccn2)ccc1-c1nc([C@H]2CN(C(=O)[C@H](C)OC)[C@@H](C)CO2)n2ccnc(N)c12 [Example 51] | 8.37 |
| COc1cc(C(=O)Nc2cc(C(F)(F)F)ccn2)ccc1-c1nc([C@H]2CN(C3CCOCC3)[C@@H](C)CO2)n2c(Cl)cnc(N)c12 [Example 46] | 8.71 |
| Nc1nccn2c([C@H]3CN[C@H](CO)CO3)nc(-c3ccc(C(=O)Nc4cc(C(F)(F)F)ccn4)cc3F)c12 [Example 67] | 8.71 |

a = COc1cc(C(=O)Nc2cc(C(F)(F)F)ccn2)ccc1-c1nc([C@H]2CN(C(=O)C(C)C)[C@@H](C)CO2)n2c(Cl)cnc(N)c12 [Example 15]
b = CNc1c(N[C@H]2C[C@H](c3nc(-c4ccc(C(=O)Nc5cc(C(F)(F)F)ccn5)cc4)c4c(N)nccn43)C2)c(=O)c1=O [Example 113]
c = C[C@H](O)C(=O)N1C[C@H](c2nc(-c3ccc(C(=O)Nc4cc(C(F)(F)F)ccn4)cc3F)c3c(N)ncc(Cl)n23)OC[C@@H]1C [Example 42]
d = CCOc1cc(C(=O)Nc2cc(C(F)(F)F)ccn2)ccc1-c1nc([C@H]2CN(C(=O)C3(C#N)CC3)[C@@H](C)CO2)n2c(Cl)cnc(N)c12 [Example 103]
Request: Please list these in order of increasing pIC50. Thank you! Your reply should list the labels following the order given in the request.
Result: a, d, c, b
(a: 8.38, d: 8.72, c: 9.40, b: 9.78)

====

assayed-target: BTK enzyme (recombinant full-length BTK, hBTK) (Homo sapiens, UniProt Q06187)
Construct: recombinant protein from baculovirus-transfected S 19 cells: full-length BTK, 6 HIS-tag cleaved; 6 HIS-tag (cleaved yes); made in house
assay-name: Btk enzyme activity assay (LANCE TR-FRET)
Type: biochemical
conditions: 50 pM hBTK, 25 μM ATP, 60 minute compound and enzyme incubation, concentration range 1 μM to 0.017 nM, read-out: BTK binding IC50
quantity-measured: IC50 (nM)

The following compounds have reported results that may help.
| smiles-input | assayed-target | IC50 [nM] |
| --- | --- | --- |
| COc1cc(C(=O)Nc2cc(C(F)(F)F)ccn2)ccc1-c1nc([C@H]2CN(Cc3cnn(C)c3)[C@@H](C)CO2)n2ccnc(N)c12 | BTK enzyme (recombinant full-length BTK, hBTK) (Homo sapiens, UniProt Q06187) | 2.28 |
| COc1cc(C(=O)Nc2cc(C(F)(F)F)ccn2)ccc1-c1nc([C@H]2CN(C(=O)[C@H](C)O)[C@@H](C)CO2)n2ccnc(N)c12 | BTK enzyme (recombinant full-length BTK, hBTK) (Homo sapiens, UniProt Q06187) | 2.26 |
| CO[C@H](C)C(=O)N1C[C@H](c2nc(-c3ccc(C(=O)Nc4cc(C(F)(F)F)ccn4)cc3F)c3c(N)nccn23)OC[C@@H]1C | BTK enzyme (recombinant full-length BTK, hBTK) (Homo sapiens, UniProt Q06187) | 0.423 |
| CCOc1cc(C(=O)Nc2cc(C(F)(F)F)ccn2)c(F)cc1-c1nc([C@H]2CN(C(=O)C3CC3)[C@@H](C)CO2)n2c(Cl)cnc(N)c12 | BTK enzyme (recombinant full-length BTK, hBTK) (Homo sapiens, UniProt Q06187) | 2.52 |
| COc1cc(C(=O)Nc2cc(C(F)(F)F)ccn2)ccc1-c1nc([C@H]2CN(Cc3[nH]cnc3C)[C@@H](C)CO2)n2ccnc(N)c12 | BTK enzyme (recombinant full-length BTK, hBTK) (Homo sapiens, UniProt Q06187) | 5.8 |
| CCOc1cc(C(=O)Nc2cc(C(F)(F)F)n(C)n2)ccc1-c1nc([C@H]2CN(C3CCOCC3)[C@@H](C)CO2)n2ccnc(N)c12 | BTK enzyme (recombinant full-length BTK, hBTK) (Homo sapiens, UniProt Q06187) | 5.87 |

a = COCCC(=O)N1CC(C(=O)N2C[C@H](c3nc(-c4ccc(C(=O)Nc5cc(C(F)(F)F)ccn5)cc4OC)c4c(N)nccn34)OC[C@@H]2C)C1
b = CCOc1cc(C(=O)Nc2cc(C(F)(F)F)ccn2)cc(F)c1-c1nc([C@H]2CN(C(=O)[C@@H](C)O)[C@@H](C)CO2)n2c(Cl)cnc(N)c12
c = Nc1nccn2c1c(-c1ccc(C(=O)Nc3cc(C(F)(F)F)ccn3)cc1)nc2[C@H]1C[C@H](Nc2c(NC3CC3)c(=O)c2=O)C1
d = COCCC(=O)N1CC(N2C[C@H](c3nc(-c4ccc(C(=O)Nc5cc(C(F)(F)F)ccn5)cc4OC)c4c(N)nccn34)OC[C@@H]2C)C1
Request: Please list these in order of increasing IC50. Thank you! Your reply should list the labels following the order given in the request.
Result: c, b, a, d
(c: 0.327 nM, b: 0.479 nM, a: 2.05 nM, d: 7.61 nM)

a = CCOc1cc(C(=O)Nc2cc(C(F)(F)F)ccn2)ccc1-c1nc([C@H]2CN(C(=O)CC)[C@@H](C)CO2)n2c(Cl)cnc(N)c12
b = CCOc1cc(C(=O)Nc2cc(C(F)(F)F)n(C)n2)ccc1-c1nc([C@H]2CN(C3CCOCC3)[C@@H](C)CO2)n2c(Cl)cnc(N)c12
Request: Compare a and b and name the one whose reported IC50 is smaller. API: response body contains the label of the selected item.
Result: a
